# assay.comment: Solubility test of the crystal form A
# Format: physicochemical
# condition.details: organic solvent or mixture, thermodynamic from solid; Acetone; room temperature
measured.attribute: solubility

Request: Fill in the blank: the reported solubility of N=C(N)NOCCONC(=O)C1CCC2CN1C(=O)N2OS(=O)(=O)O (stereo not shown) is ____.
Response: < 1900 µg/mL

###

# assay.comment: pKa of side-chain group
# Format: physicochemical
# condition.details: guanidinoxy group
measured.attribute: pKa
One number for each entry.

Request: State the recorded pKa for this entry: N=C(N)NOCCONC(=O)C1CCC2CN1C(=O)N2OS(=O)(=O)O (stereo not shown)
Response: 8.83

###

# assay.comment: Solubility test of the crystal form A
# Type: physicochemical
# condition.details: organic solvent or mixture, thermodynamic from solid; Methyl tert-butyl ether; room temperature
measured.attribute: solubility

Request: Reported solubility, molecule N=C(N)NOCCONC(=O)C1CCC2CN1C(=O)N2OS(=O)(=O)O (stereo not shown) : ____
Response: < 2000 µg/mL

###

# assay.comment: Solubility test of the crystal form A
# Format: physicochemical
# condition.details: aqueous with cosolvent or surfactant or cyclodextrin, thermodynamic from solid; Methanol-water (3:1); room temperature
measured.attribute: solubility

Request: Give its solubility value. Item: N=C(N)NOCCONC(=O)C1CCC2CN1C(=O)N2OS(=O)(=O)O (stereo not shown)
Response: 2100 to 2600 µg/mL

###

# assay.comment: Solubility test of the crystal form A
# Assay type: physicochemical
# condition.details: aqueous with cosolvent or surfactant or cyclodextrin, thermodynamic from solid; Isopropanol-water (1:1); room temperature
# Method: Experimental Method: about 2.0 mg sample was weighed and placed into a 1.5 mL borosilicate glass bottle, followed by addition of the following solvents with a pipetting gun respectively, and appropriate ultrasonic treatment was performed for dissolving. The test was carried out at room temperature, and the dissolution was detected by naked eye.
measured.attribute: solubility

Request: I am curious: what solubility value has been reported for N=C(N)NOCCONC(=O)C1CCC2CN1C(=O)N2OS(=O)(=O)O (stereo not shown) ?
Response: 6800 to 10200 µg/mL

###

# assay.comment: Solubility test of the crystal form A
# Type: physicochemical
# condition.details: thermodynamic from solid; Water; room temperature
measured.attribute: solubility

Request: Please report the recorded solubility for N=C(N)NOCCONC(=O)C1CCC2CN1C(=O)N2OS(=O)(=O)O (stereo not shown) .
Response: 10.2 to 20.4 mg/mL

###

# assay.comment: Solubility test of the crystal form A
# Assay type: physicochemical
# condition.details: organic solvent or mixture, thermodynamic from solid; Methyl isobutyl ketone; room temperature
measured.attribute: solubility

Request: solubility for N=C(N)NOCCONC(=O)C1CCC2CN1C(=O)N2OS(=O)(=O)O (stereo not shown) ?
Response: < 2000 µg/mL

###

# assay.comment: Solubility test of the crystal form A
# Format: physicochemical
# condition.details: organic solvent or mixture, thermodynamic from solid; Isopropyl acetate; room temperature
measured.attribute: solubility

Request: Form field: reported solubility of N=C(N)NOCCONC(=O)C1CCC2CN1C(=O)N2OS(=O)(=O)O (stereo not shown)
Response: < 2000 µg/mL

###

# assay.comment: Solubility test of the crystal form A
# Type: physicochemical
# condition.details: organic solvent or mixture, thermodynamic from solid; 2-Methyltetrahydrofuran; room temperature
measured.attribute: solubility

Request: Can you look up the measured solubility of N=C(N)NOCCONC(=O)C1CCC2CN1C(=O)N2OS(=O)(=O)O (stereo not shown) for me?
Response: < 2000 µg/mL
